Protein target, amino acids: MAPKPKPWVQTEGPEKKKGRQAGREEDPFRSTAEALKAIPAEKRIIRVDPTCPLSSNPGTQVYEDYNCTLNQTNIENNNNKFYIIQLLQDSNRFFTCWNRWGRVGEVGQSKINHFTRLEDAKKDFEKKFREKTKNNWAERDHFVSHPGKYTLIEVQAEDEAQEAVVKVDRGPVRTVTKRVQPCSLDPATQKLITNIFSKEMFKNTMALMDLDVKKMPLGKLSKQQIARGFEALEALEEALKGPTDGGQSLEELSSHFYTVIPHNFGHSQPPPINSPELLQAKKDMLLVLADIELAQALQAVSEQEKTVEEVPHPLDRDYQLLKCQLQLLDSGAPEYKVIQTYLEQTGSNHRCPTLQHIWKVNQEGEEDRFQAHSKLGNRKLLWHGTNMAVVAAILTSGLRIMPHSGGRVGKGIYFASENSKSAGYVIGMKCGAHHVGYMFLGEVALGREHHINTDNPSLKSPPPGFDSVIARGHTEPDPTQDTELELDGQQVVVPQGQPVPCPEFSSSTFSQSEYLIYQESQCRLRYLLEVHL
pIC50: −log10 of the molar value.
PROPERTY: pIC50

Value of pIC50 reported for the compound N#Cc1ccc2c(c1)[nH]c(=O)n2[C@H]1C[C@H](c2nnc(-c3ccncn3)n2-c2ccccc2Cl)C1 is < 4.00

====

experiment: Oral bioavailability in Beagle dog at 7 mg/kg measured up to 24 hrs postdose; type: ADME, organism-based, Canis lupus familiaris; conditions: in vivo
PROPERTY: bioavailability (%)
Give your result in % as a bare value.

For N#Cc1ccc2c(c1)[nH]c(=O)n2[C@H]1C[C@H](c2nnc(-c3ccncn3)n2-c2ccccc2Cl)C1 the compound record lists bioavailability as 91

====

tested on: Mus musculus; experiment: Clearance in ICR mouse at 5 mg/kg, po measured up to 24 hrs; format: ADME, organism-based; conditions: in vivo
PROPERTY: clearance
Please state the value followed by its unit.

Record N#Cc1ccc2c(c1)[nH]c(=O)n2[C@H]1C[C@H](c2nnc(-c3ccncn3)n2-c2ccccc2Cl)C1 , field clearance: 34 L/h/kg

====

assay: AUC (0 to t) in ICR mouse at 5 mg/kg, po measured up to 24 hrs postdose; format: ADME, organism-based; design: time < 24 hr, dose 5 mg/kg, route oral; conditions: in vivo
PROPERTY: AUC(0-t) at 24 h (ng·h/mL)
Write the number in ng·h/mL without appending the unit.

Lab note: measured AUC(0-t) at 24 h of N#Cc1ccc2c(c1)[nH]c(=O)n2[C@H]1C[C@H](c2nnc(-c3ccncn3)n2-c2ccccc2Cl)C1 was 145

====

experiment: Cmax in Sprague-Dawley rat at 14 mg/kg, po measured up to 24 hrs postdose; type: ADME, organism-based; design: dose 14 mg/kg, route oral; settings: in vivo
PROPERTY: Cmax (ng/mL)
Quick reminder: number only, in ng/mL, skip the unit.

Field Cmax (entry N#Cc1ccc2c(c1)[nH]c(=O)n2[C@H]1C[C@H](c2nnc(-c3ccncn3)n2-c2ccccc2Cl)C1 ) reads 843

====

molecular target: Poly [ADP-ribose] polymerase 1 (Homo sapiens, UniProt P09874); assay: Inhibition of recombinant human PARP1 expressed in Escherichia coli using NAD+ as substrate after 10 mins by fluorescence assay
Sequence (P09874 whole entry): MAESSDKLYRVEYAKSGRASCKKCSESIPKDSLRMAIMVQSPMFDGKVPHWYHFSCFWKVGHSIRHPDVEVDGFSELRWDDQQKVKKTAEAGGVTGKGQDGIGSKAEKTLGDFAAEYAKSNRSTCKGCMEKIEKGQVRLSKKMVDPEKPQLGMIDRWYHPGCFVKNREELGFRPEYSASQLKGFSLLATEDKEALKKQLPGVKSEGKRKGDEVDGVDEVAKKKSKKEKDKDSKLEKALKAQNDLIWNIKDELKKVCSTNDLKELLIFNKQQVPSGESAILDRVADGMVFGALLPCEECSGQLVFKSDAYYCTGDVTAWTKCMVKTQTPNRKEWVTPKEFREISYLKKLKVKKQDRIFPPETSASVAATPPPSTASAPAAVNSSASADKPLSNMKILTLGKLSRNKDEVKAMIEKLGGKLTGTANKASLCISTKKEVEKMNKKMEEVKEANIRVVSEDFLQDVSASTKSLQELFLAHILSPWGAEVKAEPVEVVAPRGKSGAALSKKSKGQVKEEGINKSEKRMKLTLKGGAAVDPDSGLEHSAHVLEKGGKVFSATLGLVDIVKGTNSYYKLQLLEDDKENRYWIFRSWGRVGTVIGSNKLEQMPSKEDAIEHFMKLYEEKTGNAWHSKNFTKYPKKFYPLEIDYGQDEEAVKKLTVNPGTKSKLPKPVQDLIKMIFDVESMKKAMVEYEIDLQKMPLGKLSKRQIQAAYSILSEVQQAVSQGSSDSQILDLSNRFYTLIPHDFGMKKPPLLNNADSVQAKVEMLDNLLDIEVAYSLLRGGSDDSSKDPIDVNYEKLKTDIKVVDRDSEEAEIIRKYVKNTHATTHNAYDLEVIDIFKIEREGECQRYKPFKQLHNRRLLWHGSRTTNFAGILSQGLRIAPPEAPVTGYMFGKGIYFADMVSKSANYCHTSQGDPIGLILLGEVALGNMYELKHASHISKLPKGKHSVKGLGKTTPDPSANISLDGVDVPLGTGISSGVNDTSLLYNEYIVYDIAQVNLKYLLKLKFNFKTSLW
pIC50: −log10 of the molar value.
PROPERTY: pIC50

The value of pIC50 measured for the compound N#Cc1ccc2c(c1)[nH]c(=O)n2[C@H]1C[C@H](c2nnc(-c3ccncn3)n2-c2ccccc2Cl)C1 turned out to be < 4.00

====

Target protein (sequence): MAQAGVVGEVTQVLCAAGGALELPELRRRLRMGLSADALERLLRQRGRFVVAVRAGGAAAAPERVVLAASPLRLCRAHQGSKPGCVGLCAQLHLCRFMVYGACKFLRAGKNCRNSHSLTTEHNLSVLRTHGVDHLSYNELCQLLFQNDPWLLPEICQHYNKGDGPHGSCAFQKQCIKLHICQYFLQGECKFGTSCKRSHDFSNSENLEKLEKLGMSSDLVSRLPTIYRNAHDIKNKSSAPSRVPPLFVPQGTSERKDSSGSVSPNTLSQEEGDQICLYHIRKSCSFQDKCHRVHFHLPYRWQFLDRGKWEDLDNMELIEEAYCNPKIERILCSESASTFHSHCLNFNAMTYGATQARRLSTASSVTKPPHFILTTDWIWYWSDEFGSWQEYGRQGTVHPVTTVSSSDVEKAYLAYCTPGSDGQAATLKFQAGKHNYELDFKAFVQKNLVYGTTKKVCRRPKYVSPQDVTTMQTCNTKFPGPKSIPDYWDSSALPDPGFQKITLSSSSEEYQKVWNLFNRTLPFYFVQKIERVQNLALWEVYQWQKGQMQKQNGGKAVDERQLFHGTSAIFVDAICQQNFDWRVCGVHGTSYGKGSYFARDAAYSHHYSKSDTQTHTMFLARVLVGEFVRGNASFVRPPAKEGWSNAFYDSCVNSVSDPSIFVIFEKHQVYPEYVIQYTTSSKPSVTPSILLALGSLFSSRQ
pIC50: −log10 of the molar value.
PROPERTY: pIC50

Memo: N#Cc1ccc2c(c1)[nH]c(=O)n2[C@H]1C[C@H](c2nnc(-c3ccncn3)n2-c2ccccc2Cl)C1 , reported pIC50: < 5.00

====

assay: Cmax in Beagle dog at 7 mg/kg, po measured up to 24 hrs postdose; assay type: ADME, organism-based, Canis lupus familiaris; set-up: dose 7 mg/kg, route oral; conditions: in vivo
PROPERTY: Cmax

N#Cc1ccc2c(c1)[nH]c(=O)n2[C@H]1C[C@H](c2nnc(-c3ccncn3)n2-c2ccccc2Cl)C1 yielded Cmax of 5850 ng/mL

====

target: Protein mono-ADP-ribosyltransferase PARP16 (Homo sapiens)
Sequence (Q8N5Y8 whole entry): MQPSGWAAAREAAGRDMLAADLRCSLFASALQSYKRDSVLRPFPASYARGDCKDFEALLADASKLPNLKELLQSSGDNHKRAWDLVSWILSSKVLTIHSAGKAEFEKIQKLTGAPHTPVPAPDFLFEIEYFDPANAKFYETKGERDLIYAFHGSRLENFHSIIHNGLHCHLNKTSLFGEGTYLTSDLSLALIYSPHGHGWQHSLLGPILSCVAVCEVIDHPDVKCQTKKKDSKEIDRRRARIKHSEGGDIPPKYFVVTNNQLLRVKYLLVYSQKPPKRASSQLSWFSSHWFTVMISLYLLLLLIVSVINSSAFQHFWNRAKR
pIC50: −log10 of the molar value.
PROPERTY: pIC50

Fill in: Protein mono-ADP-ribosyltransferase PARP16 (Homo sapiens) pIC50 for N#Cc1ccc2c(c1)[nH]c(=O)n2[C@H]1C[C@H](c2nnc(-c3ccncn3)n2-c2ccccc2Cl)C1 = < 5.00

====

target: Protein mono-ADP-ribosyltransferase PARP10 (Homo sapiens, UniProt Q53GL7)
Sequence (Q53GL7 whole entry): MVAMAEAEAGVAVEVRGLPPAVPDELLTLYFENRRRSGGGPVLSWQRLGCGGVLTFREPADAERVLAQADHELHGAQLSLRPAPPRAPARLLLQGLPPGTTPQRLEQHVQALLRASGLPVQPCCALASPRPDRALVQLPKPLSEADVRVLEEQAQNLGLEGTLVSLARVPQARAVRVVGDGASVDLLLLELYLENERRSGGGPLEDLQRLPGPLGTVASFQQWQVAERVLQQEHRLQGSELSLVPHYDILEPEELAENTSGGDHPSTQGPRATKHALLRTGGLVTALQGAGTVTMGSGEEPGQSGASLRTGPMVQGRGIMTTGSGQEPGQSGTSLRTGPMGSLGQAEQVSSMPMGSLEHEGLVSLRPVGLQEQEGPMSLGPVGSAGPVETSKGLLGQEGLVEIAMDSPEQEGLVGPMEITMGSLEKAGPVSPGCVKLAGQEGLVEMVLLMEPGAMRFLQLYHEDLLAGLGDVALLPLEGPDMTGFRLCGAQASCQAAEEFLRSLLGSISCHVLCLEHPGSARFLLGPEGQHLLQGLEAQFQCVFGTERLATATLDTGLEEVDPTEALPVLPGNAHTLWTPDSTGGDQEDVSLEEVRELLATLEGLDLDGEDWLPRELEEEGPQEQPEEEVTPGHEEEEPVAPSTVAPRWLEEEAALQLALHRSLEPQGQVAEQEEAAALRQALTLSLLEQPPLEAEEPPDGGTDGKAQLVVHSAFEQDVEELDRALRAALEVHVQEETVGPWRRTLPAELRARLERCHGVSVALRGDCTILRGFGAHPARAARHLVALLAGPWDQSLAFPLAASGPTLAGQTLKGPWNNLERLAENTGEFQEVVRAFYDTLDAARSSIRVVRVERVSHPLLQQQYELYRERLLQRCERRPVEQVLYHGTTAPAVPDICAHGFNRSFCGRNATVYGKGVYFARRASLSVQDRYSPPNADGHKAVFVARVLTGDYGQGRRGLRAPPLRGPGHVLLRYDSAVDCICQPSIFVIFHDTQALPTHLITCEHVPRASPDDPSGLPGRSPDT
pIC50: −log10 of the molar value.
PROPERTY: pIC50

get_value(item= N#Cc1ccc2c(c1)[nH]c(=O)n2[C@H]1C[C@H](c2nnc(-c3ccncn3)n2-c2ccccc2Cl)C1 , readout=pIC50) returns < 5.00

====

target: Poly [ADP-ribose] polymerase tankyrase-2 (Homo sapiens, UniProt Q9H2K2); assay: Inhibition of TNKS2 (unknown origin) expressed in HEK293 cells assessed as inhibition of Wnt3a-induced Wnt/beta-catenin signaling after 24 hrs by luciferase reporter gene assay; assay type: cell-based
Sequence (Q9H2K2 whole entry, the tested form may be a part): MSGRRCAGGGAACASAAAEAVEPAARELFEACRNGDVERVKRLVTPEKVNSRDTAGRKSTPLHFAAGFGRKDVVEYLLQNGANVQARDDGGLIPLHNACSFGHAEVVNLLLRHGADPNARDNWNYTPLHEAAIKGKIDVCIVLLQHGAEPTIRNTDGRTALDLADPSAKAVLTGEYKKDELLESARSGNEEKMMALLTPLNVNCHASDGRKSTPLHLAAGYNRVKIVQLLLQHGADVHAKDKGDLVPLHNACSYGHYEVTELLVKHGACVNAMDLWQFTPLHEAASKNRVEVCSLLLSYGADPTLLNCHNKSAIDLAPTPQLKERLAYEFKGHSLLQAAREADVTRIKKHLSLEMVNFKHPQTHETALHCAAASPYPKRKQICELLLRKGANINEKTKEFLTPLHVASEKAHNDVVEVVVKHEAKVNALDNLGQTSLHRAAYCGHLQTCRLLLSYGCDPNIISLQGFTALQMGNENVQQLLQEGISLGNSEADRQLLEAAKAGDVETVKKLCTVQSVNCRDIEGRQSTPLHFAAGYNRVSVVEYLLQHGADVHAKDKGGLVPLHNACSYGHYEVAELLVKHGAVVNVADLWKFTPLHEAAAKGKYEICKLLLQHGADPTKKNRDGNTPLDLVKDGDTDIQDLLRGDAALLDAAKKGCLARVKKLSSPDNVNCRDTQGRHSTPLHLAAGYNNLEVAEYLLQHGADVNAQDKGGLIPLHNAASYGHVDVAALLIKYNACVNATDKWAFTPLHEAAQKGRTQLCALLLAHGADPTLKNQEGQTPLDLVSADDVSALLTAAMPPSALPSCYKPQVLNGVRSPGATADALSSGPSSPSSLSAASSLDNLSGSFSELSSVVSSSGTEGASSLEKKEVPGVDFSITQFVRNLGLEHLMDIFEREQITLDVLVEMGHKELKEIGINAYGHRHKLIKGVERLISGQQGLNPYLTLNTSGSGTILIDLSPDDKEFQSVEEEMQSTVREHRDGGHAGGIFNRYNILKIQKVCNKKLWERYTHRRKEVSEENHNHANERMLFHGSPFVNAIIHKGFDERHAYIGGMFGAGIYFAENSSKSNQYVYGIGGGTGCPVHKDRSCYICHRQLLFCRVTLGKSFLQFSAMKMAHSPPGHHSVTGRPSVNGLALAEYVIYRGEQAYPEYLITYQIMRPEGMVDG
Below, each entry is listed with its recorded pIC50.
Please note pIC50 is a logarithmic value: minus log10 of concentration in mol/L. Answer with that number alone.

>>> endpoint_value("O=c1[nH]c2ccccc2n1[C@H]1CC[C@H](c2nnc(-c3ccncn3)n2-c2ccccc2Cl)CC1")
5.97
>>> endpoint_value("N#Cc1ccc2c(c1)[nH]c(=O)n2[C@H]1CC[C@H](c2nnc(-c3ccncn3)n2-c2ccccc2Cl)CC1")
6.92

Could you now consider this next compound?
Lab note: O=c1[nH]c2ccccc2n1[C@H]1C[C@H](c2nnc(-c3ccncn3)n2-c2ccccc2Cl)C1 gave pIC50 of 6.70

====

experiment: Terminal half life in ICR mouse at 5 mg/kg, po measured up to 24 hrs postdose; type: ADME, organism-based; settings: in vivo, read-out: beta t1/2 (converted)
PROPERTY: half-life (h)
Write the value in h as a bare number.

N#Cc1ccc2c(c1)[nH]c(=O)n2[C@H]1C[C@H](c2nnc(-c3ccncn3)n2-c2ccccc2Cl)C1 has a reported half-life of 1.5

====

experiment: Cmax in ICR mouse at 5 mg/kg, po measured up to 24 hrs postdose; type: ADME, organism-based; set-up: dose 5 mg/kg, route oral; conditions: in vivo
PROPERTY: Cmax
Your reply should be a number followed by the unit it is expressed in.

Reported Cmax ( N#Cc1ccc2c(c1)[nH]c(=O)n2[C@H]1C[C@H](c2nnc(-c3ccncn3)n2-c2ccccc2Cl)C1 ) = 124 ng/mL

====

molecular target: Poly [ADP-ribose] polymerase tankyrase-2 (Homo sapiens, UniProt Q9H2K2); test: Inhibition of human TNKS2 (873 to 1162 residues) assessed as reduction in NAD+ consumption by fluorescence assay
This section presents molecules with their documented IC50 values.
The reply should be a number in nM, with the unit left off.

>>> endpoint_value("O=c1[nH]c2ccccc2n1[C@H]1CC[C@H](c2nnc(-c3ccncn3)n2-c2ccccc2Cl)CC1")
430
>>> endpoint_value("N#Cc1ccc2c(c1)[nH]c(=O)n2-c1ccc(-c2nnc(-c3ccncn3)n2-c2ccccc2Cl)cc1")
340

Per the records, this molecule ( O=c1[nH]c2ccccc2n1[C@H]1C[C@H](c2nnc(-c3ccncn3)n2-c2ccccc2Cl)C1 ) has IC50 equal to 9.8

IC50 reported for this molecule N#Cc1ccc2c(c1)[nH]c(=O)n2[C@H]1CC[C@H](c2nnc(-c3ccncn3)n2-c2ccccc2Cl)CC1 : 330
